- Test system: CCRF-CEM leukemia
- protocol: NCI tumour cell line growth inhibition, 48 h
# TGI per record follows

compound	quantity.name	endpoint.value
CN(C)c1nc(N(C)C)n2nc(-c3ccccc3[N+](=O)[O-])nc2n1	TGI	> 100 µM
CC(C)C[C@H](NC(=O)CCc1ccccc1)B(O)O	TGI	7.33 µM
O=C(O)c1ccc(-c2ccc(C(=O)O)cc2I)c(I)c1	TGI	> 100 µM
CC(C)CNc1nc(N)[nH]c(=O)c1NC=O	TGI	> 100 µM
COc1cccc2c1cc([N+](=O)[O-])c1c(C(=O)O)cc3c(c12)OCO3	TGI	> 100 µM

Field: next compound
Tell me measured TGI for "O=C1/C(=C/c2ccc(Cl)cc2)NC(=S)N1CN1CCOCC1" please.
> 100 µM
